MEASURED_PARAMETER: melting point

[[record]]
item_smiles = "Cn1c2cc(Cl)ccc2c2c(C(N)=O)nn(-c3ccncc3)c(=O)c21"
result = "341 to 346 °C"

[[record]]
item_smiles = "CN(C)C(=O)c1nn(-c2cnc3ccccc3c2)c(=O)c2c1c1ccc(Cl)cc1n2C"
result = "271 to 272 °C"

[[record]]
item_smiles = "Cc1ccc(-n2nc(C(=O)N(C)C)c3c4ccc(Cl)cc4n(C)c3c2=O)cn1"
result = "214 to 216 °C"

[[record]]
item_smiles = "Cc1cc(-n2nc(C(=O)N3CCCC3)c3c4ccc(Cl)cc4n(C)c3c2=O)ccn1"
result = "246 to 247 °C"

[[record]]
item_smiles = "CN(C)C(=O)c1nn(-c2cccnc2)c(=O)c2c1c1ccc(F)cc1n2C"
result = "220 to 221 °C"

[[record]]
item_smiles = "Cc1ccc(-n2nc(C(=O)N(C)C)c3c4ccc(Cl)cc4n(C)c3c2=O)nn1"
result = "238 to 239 °C"

[[record]]
item_smiles = "COc1ccnc(-n2nc(C(=O)N(C)C)c3c4ccc(Cl)cc4n(C)c3c2=O)c1"
result = "243 to 244 °C"

[[record]]
item_smiles = "CN(C)C(=O)c1nn(-c2ccc(Br)nc2)c(=O)c2c1c1ccc(Cl)cc1n2C"
result = "250 to 252 °C"

[[record]]
item_smiles = "CN(C)C(=O)c1nn(-c2ccccn2)c(=O)c2c1c1ccc(Cl)cc1n2C"
result = "210 to 211 °C"

[[record]]
item_smiles = "COc1cc(-n2nc(C(=O)N(C)C)c3c4ccc(Cl)cc4n(C)c3c2=O)ccn1"
result = "237 to 238 °C"

[[record]]
item_smiles = "Cn1c2cc(F)ccc2c2c(C(=O)N3CCCC3)nn(-c3cccnc3)c(=O)c21"
result = "220 to 221 °C"

[[record]]
item_smiles = "CCN(C)C(=O)c1nn(-c2ccncc2)c(=O)c2c1c1ccc(Cl)cc1n2C"
result = "211 to 213 °C"

[[record]]
item_smiles = "Cc1cc(-n2nc(C(=O)N(C)C)c3c4ccc(Cl)cc4n(C)c3c2=O)ccn1"
result = "267 to 269 °C"

[[record]]
item_smiles = "CN(C)C(=O)c1nn(-c2cnc3ccccc3c2)c(=O)c2c1c1ccc(F)cc1n2C"
result = "237 to 238 °C"

[[record]]
item_smiles = "CNC(=O)c1nn(-c2cccnc2)c(=O)c2c1c1ccc(F)cc1n2C"
result = "270 to 272 °C"

[[record]]
item_smiles = "CN(C)C(=O)c1nn(-c2ncccn2)c(=O)c2c1c1ccc(Cl)cc1n2C"
result = "272 to 274 °C"

[[record]]
item_smiles = "CN(C)C(=O)c1nn(-c2cccnc2)c(=O)c2c1c1ccc(Cl)cc1n2C.Cl"
result = "228 to 230 °C"

[[record]]
item_smiles = "Cn1c2cc(Cl)ccc2c2c(C(=O)N3CCCC3)nn(-c3ccncc3)c(=O)c21"
result = "236 to 237 °C"


* * *

MEASURED_PARAMETER: melting point

[[record]]
item_smiles = "Cn1c2cc(Cl)ccc2c2c(C(=O)N3CCCCC3)nn(-c3ccncc3)c(=O)c21"
measured_parameter = "melting point"
result = "242 to 243 °C"

[[record]]
item_smiles = "CN1CCN(C(=O)c2nn(-c3cccnc3)c(=O)c3c2c2ccc(F)cc2n3C)CC1.Cl"
measured_parameter = "melting point"
result = "269 to 273 °C"

[[record]]
item_smiles = "Cl.Cn1c2cc(Cl)ccc2c2c(C(=O)N3CCCC3)nn(-c3cccnc3)c(=O)c21"
measured_parameter = "melting point"
result = "232 to 234 °C"

[[record]]
item_smiles = "COc1ccc(-n2nc(C(=O)N(C)C)c3c4ccc(F)cc4n(C)c3c2=O)cn1"
measured_parameter = "melting point"
result = "225 to 226 °C"

[[record]]
item_smiles = "COc1ccc(-n2nc(C(=O)N(C)C)c3c4ccc(Cl)cc4n(C)c3c2=O)cn1"
measured_parameter = "melting point"
result = "236 to 237 °C"

[[record]]
item_smiles = "CN(C)C(=O)c1nn(-c2ccncc2)c(=O)c2c1c1ccc(F)cc1n2C.Cl"
measured_parameter = "melting point"
result = "266 to 271 °C"

[[record]]
item_smiles = "CNC(=O)c1nn(-c2ccncc2)c(=O)c2c1c1ccc(Cl)cc1n2C"
measured_parameter = "melting point"
result = "321 to 323 °C"

[[record]]
item_smiles = "Cn1c2cc(F)ccc2c2c(C(N)=O)nn(-c3cccnc3)c(=O)c21"
measured_parameter = "melting point"
result = "319 to 320 °C"

[[record]]
item_smiles = "CN(C)C(=O)c1nn(-c2cncc3ccccc23)c(=O)c2c1c1ccc(Cl)cc1n2C"
measured_parameter = "melting point"
result = "189 to 191 °C"

[[record]]
item_smiles = "CN(C)C(=O)c1nn(-c2cnccn2)c(=O)c2c1c1ccc(Cl)cc1n2C"
measured_parameter = "melting point"
result = "231 to 232 °C"

[[record]]
item_smiles = "CN(C)C(=O)c1nn(-c2ccncc2)c(=O)c2c1c1ccc(Cl)cc1n2C"
measured_parameter = "melting point"
result = "276 to 278 °C"

[[record]]
item_smiles = "CN(C)C(=O)c1nn(-c2ccccn2)c(=O)c2c1c1ccc(F)cc1n2C"
measured_parameter = "melting point"
result = "199 to 200 °C"

[[record]]
item_smiles = "CN(C)C(=O)c1nn(-c2ccncc2)c(=O)c2c1c1ccc(Cl)cc1n2C.Cl"
measured_parameter = "melting point"
result = "263 to 265 °C"

[[record]]
item_smiles = "Cn1c2cc(F)ccc2c2c(C(=O)N3CCCC3)nn(-c3ncccn3)c(=O)c21"
measured_parameter = "melting point"
result = "238 to 239 °C"

[[record]]
item_smiles = "CN(C)C(=O)c1nn(-c2cc[n+]([O-])cc2)c(=O)c2c1c1ccc(Cl)cc1n2C"
measured_parameter = "melting point"
result = "301 to 304 °C"

[[record]]
item_smiles = "CN(C)C(=O)c1nn(-c2cncnc2)c(=O)c2c1c1ccc(Cl)cc1n2C"
measured_parameter = "melting point"
result = "251 to 252 °C"

[[record]]
item_smiles = "CN1CCN(C(=O)c2nn(-c3cccnc3)c(=O)c3c2c2ccc(Cl)cc2n3C)CC1.Cl"
measured_parameter = "melting point"
result = "267 to 268 °C"

[[record]]
item_smiles = "Cc1ccc(-n2nc(C(=O)N(C)C)c3c4ccc(Cl)cc4n(C)c3c2=O)nc1"
measured_parameter = "melting point"
result = "222 to 224 °C"


Sourced from patent US7569567B2
